System: Plasmodium berghei
Assay text: Luciferase/luciferin-expressing antifolate-resistant parasites were used to infect a culture of HepG2 cells that were pre-incubated with compounds. Infected hepatocytes emit light due to the luciferase reaction. Assay results are presented as the percent inhibition of light emission compared to control. […]
Format: functional
Applied conditions: sporozoite, HEPG2TOX_HILL_SLOPE 9.75, HEPG2TOX_R_SQUARED 0.561, PBLUC_HILL_SLOPE 7.25, PBLUC_R_SQUARED 0.0375, read-out: LUCIFERASE INFECTION ASSAY - IC50
pIC50: −log10 of the molar value.

>  <Smiles code>
Cc1cn2nc(N(C)Cc3ccc(N(C)C)cc3)sc2n1

>  <pIC50>
5.10

$$$$
